# Tested on: MET
# Method Description: MET biochemical kinase assay
# Design: species or system human; concentration or dose not given beside the values
Note to self: use Fulfilled only for Met Kinase % Inhibition readings below 40%; a reading exactly at 40% still gets Not fulfilled.

Query Smiles: CCc1ccc(C=C2C(=O)Nc3ccc(S(=O)(=O)NC)cc32)s1
Assigned Label: Fulfilled

From here, focus on the item given below.
Exam item: Check if Met Kinase % Inhibition falls below 40% for "COc1c(C)cc(C=C2C(=O)Nc3ccc(S(=O)(=O)N4CCOCC4)cc32)cc1C" .
Marked response: Fulfilled

====

# Test system: MET
# Method Description: MET biochemical kinase assay
# Design: species or system human; concentration or dose not given beside the values
Answer each item with its documented Met Kinase % Inhibition.
Respond with the figure and its unit, in that order.

Examples with answers:
Compound: O=C1Nc2ccc(I)cc2C1=Cc1ccc(F)cc1F [10722/B06]
Target Of Assay: MET
Met Kinase % Inhibition: 72.6%

Compound: O=C1Nc2ccc(I)cc2C1=Cc1c[nH]cn1 [10725/B11]
Target Of Assay: MET
Met Kinase % Inhibition: 76.3%

Compound: O=C1Nc2ccccc2C1=C1C(=O)Nc2ccc(S(=O)(=O)Nc3ccc(C(F)(F)F)cc3)cc21 [10726/E09]
Target Of Assay: MET
Met Kinase % Inhibition: 50.3%

Okay, here is my list. What is Met Kinase % Inhibition for each of these?
1. CC(C)(C)c1cc(C=C2C(=O)Nc3ccc(I)cc32)cc(I)c1OCc1ccccc1 [10733/B02]
2. CC(C)c1cc(C=C2C(=O)Nc3ccc(I)cc32)cc(C(C)C)c1O [10724/B06]

Marked response:
74.6%
52.1%

====

Answer each item with its documented PDGF Kinase %Inhibition.
# Target Of Assay: PDGF-R (Homo sapiens, UniProt P09619)
# Sequence (P09619 33-1106, species assumed): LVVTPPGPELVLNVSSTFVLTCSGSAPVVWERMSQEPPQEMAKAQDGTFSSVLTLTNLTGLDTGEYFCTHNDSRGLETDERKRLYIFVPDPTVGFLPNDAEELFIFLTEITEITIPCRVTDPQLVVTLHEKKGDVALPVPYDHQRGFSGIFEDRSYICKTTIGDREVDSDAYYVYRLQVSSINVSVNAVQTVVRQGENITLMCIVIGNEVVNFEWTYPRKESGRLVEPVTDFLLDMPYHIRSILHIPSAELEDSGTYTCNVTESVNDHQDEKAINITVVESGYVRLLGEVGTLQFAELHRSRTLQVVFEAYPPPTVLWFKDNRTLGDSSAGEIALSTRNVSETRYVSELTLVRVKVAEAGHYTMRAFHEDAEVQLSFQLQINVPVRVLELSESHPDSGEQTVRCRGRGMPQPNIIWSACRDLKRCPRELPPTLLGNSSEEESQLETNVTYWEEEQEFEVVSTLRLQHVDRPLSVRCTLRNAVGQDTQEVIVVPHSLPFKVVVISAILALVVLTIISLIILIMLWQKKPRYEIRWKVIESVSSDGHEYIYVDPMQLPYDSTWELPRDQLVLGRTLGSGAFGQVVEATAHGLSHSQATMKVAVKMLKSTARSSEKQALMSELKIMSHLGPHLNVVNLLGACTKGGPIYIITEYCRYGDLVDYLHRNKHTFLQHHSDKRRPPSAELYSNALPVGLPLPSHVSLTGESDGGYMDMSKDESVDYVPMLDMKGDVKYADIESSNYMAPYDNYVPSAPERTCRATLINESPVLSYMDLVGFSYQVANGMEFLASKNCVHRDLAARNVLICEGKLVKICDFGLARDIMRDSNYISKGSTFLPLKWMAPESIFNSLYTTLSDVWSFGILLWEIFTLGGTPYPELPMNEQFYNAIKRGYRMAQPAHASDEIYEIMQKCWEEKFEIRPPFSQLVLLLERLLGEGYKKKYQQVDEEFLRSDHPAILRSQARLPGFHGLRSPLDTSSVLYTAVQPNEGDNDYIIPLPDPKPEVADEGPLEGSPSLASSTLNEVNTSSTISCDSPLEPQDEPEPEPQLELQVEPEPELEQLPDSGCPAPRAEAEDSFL
# Method Description: PDGF-R ELISA
# Format: cell-based

Compound: CNS(=O)(=O)c1ccc2c(c1)C(=Cc1cc(C(C)(C)C)c(OCc3ccccc3)c(C(C)(C)C)c1)C(=O)N2 [10733/D05]
Value: 16.8%
--
Compound: Cc1c(Br)ccc2c1C(=Cc1cc(Br)ccc1O)C(=O)N2 [10733/C09]
Value: 91.9%
--
Compound: CCn1c2ccccc2c2cc(C=C3C(=O)Nc4ccc(CCCl)cc43)ccc21 [10731/G02]
Value: -10.1%

Okay, here is my list. What is PDGF Kinase %Inhibition for each of these?
1. COc1ccc(Br)c(C=C2C(=O)Nc3ccc(Br)c(C)c32)c1O [10725/C03]
2. CN(C)c1ccc(C=C2C(=O)Nc3ccc(CCCl)cc32)c2ccccc12 [10724/G02]
3. CCc1ccc(C=C2C(=O)Nc3ccc(S(=O)(=O)NC)cc32)o1 [10724/D10]
4. O=C1Nc2ccc(I)cc2C1=Cc1ccc(Br)o1 [10726/B05]
5. O=C1Nc2c(Br)cc(Br)cc2C1=Cc1cc(Br)ccc1O [10733/A09]

Marked response:
19.3%
-7.6%
38.3%
27.1%
-7.6%

Exam item: Item O=C1Nc2ccc(I)cc2C1=Cc1ccncc1 [10729/B09] has what recorded PDGF Kinase %Inhibition?
Marked response: -6.4%

====

# Target Of Assay: PDGF-R (Homo sapiens)
# Method Description: PDGF-R ELISA
# Assay type: cell-based
Note to self: use TRUE only for PDGF Kinase %Inhibition readings below 20%; a reading exactly at 20% still gets FALSE.

Recorded results for 8 compounds are shown here.
Compound: Cc1cc(C=C2C(=O)Nc3ccc(S(=O)(=O)Nc4ccc(C(F)(F)F)cc4)cc32)[nH]n1 [10725/E05]
Assigned Label: FALSE

Compound: Cc1cc(C=C2C(=O)Nc3c(Br)cc(Br)cc32)ccc1O [10723/A06]
Assigned Label: FALSE

Compound: CNS(=O)(=O)c1ccc2c(c1)C(=Cc1coc3c(Br)cc(Br)cc3c1=O)C(=O)N2 [10730/D09]
Assigned Label: TRUE

Compound: Cc1c(Br)ccc2c1C(=Cc1cc3ccccc3o1)C(=O)N2 [10724/C07]
Assigned Label: FALSE

Compound: O=C1Nc2ccc(S(=O)(=O)N3CCOCC3)cc2C1=Cc1ccc(-c2ccccc2Cl)o1 [10730/F07]
Assigned Label: TRUE

Compound: CNS(=O)(=O)c1ccc2c(c1)C(=Cc1ccc(Br)s1)C(=O)N2 [10734/D11]
Assigned Label: TRUE

Compound: O=C1Nc2c(Br)cc(Br)cc2C1=Cc1ccccc1Br [10723/A07]
Assigned Label: FALSE

Compound: O=C1Nc2c(Br)cc(Br)cc2C1=Cc1ccccc1Sc1ccc(Cl)cc1 [10727/A05]
Assigned Label: TRUE

Exam item: Check if PDGF Kinase %Inhibition falls below 20% for O=C1Nc2ccc(CCCl)cc2C1=Cc1cc(Br)cc(Br)c1O [10734/G07] .
Marked response: TRUE
